Entry source: patent US20240228489A1

Molecular target: human mAChR M1 (Homo sapiens, UniProt P11229)
Sequence (P11229 1-460): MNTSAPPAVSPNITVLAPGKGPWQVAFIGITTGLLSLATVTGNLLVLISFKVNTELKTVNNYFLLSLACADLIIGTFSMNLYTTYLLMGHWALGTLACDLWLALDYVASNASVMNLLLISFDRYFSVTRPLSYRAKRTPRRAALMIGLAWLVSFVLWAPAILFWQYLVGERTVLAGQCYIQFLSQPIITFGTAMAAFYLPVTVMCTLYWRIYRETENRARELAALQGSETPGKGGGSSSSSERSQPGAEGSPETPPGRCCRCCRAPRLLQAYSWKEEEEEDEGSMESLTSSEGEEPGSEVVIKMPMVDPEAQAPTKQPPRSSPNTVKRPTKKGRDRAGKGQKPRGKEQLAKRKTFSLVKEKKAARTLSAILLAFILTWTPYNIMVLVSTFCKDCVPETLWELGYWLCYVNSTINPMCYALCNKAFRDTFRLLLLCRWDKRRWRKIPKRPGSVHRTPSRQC
Experiment: mAChR M1 cell-based functional assay (calcium mobilization), PAM mode: increase in the EC20 acetylcholine response
Protocol: Chinese hamster ovary (CHO-K1) cells stably expressing rat (r)M1 were purchased from the American Type Culture Collection and cultured according to their indicated protocol. […] Calcium flux was measured using the Functional Drug Screening System (FDSS) 6000 (Hamamatsu Corporation, Tokyo, Japan) as an increase in the fluorescent static ratio. […] Agonist activity was analyzed as a concentration-dependent increase in calcium mobilization upon compound addition. […]
readoutKind: EC50 (nM)
Give the quantity in nM, number only.

Below, 5 compounds whose answers are already recorded.
- compound: "[2H]C1([2H])c2ncccc2C(=O)N1Cc1c(F)cc(-c2ccc(OC(F)F)c3nn(C)cc23)cc1F [Compound 102]"
  testedSystem: "human mAChR M1 (Homo sapiens, UniProt P11229)"
  readoutKind: "EC50"
  resultValue: 469
- compound: "[2H]C1([2H])c2ncccc2C(=O)N1Cc1c(F)cc(-c2ccc(OC)c3c2cnn3C([2H])([2H])[2H])cc1F [Compound 69]"
  testedSystem: "human mAChR M1 (Homo sapiens, UniProt P11229)"
  readoutKind: "EC50"
  resultValue: 2190
- compound: "[2H]C1([2H])c2ncccc2C(=O)N1Cc1ccc(-c2ccc(OC(C)C)c3nn(C)cc23)cc1F [Compound 109]"
  testedSystem: "human mAChR M1 (Homo sapiens, UniProt P11229)"
  readoutKind: "EC50"
  resultValue: 167
- compound: "[2H]C1([2H])c2ncccc2C(=O)N1Cc1c(F)cc(-c2cnc3nn(C)cc3c2)cc1Cl [Compound 168]"
  testedSystem: "human mAChR M1 (Homo sapiens, UniProt P11229)"
  readoutKind: "EC50"
  resultValue: 1480
- compound: "[2H]C1([2H])c2ncccc2C(=O)N1Cc1c(F)cc(-c2ccc(OC3CN(CCCC)C3)c3nn(C)cc23)cc1F [Compound 184]"
  testedSystem: "human mAChR M1 (Homo sapiens, UniProt P11229)"
  readoutKind: "EC50"
  resultValue: 512

Please look up its EC50: [2H]C1([2H])c2ncccc2C(=O)N1Cc1c(F)cc(-c2ccc(OCSC)c3nn(C)cc23)cc1F [Compound 185]
722

Fill blank: measured EC50 of the compound [2H]C1([2H])c2ncccc2C(=O)N1Cc1c(F)cc(-c2ccc(F)c3nn(C)cc23)cc1C1CC1 [Compound 205] is ____.
248

EC50 for [2H]C1([2H])c2ncccc2C(=O)N1Cc1c(F)cc(-c2ccc3nn(C([2H])([2H])[2H])cc3c2)cc1F [Compound 100] ?
214

Name the reported EC50 value associated with the compound [2H]C1([2H])c2ncccc2C(=O)N1Cc1c(F)cc(-c2cn(C)c(=O)c3c2cnn3C([2H])([2H])[2H])cc1F [Compound 92]
2400

Return reported EC50; argument: [2H]C1([2H])c2ncccc2C(=O)N1Cc1c(F)cc(-c2ccc(OC(F)(F)F)c3nn(C([2H])([2H])[2H])cc23)cc1F [Compound 104]
1170

State the recorded EC50 for this entry: [2H]C1([2H])c2ncccc2C(=O)N1Cc1ccc(-c2ccc3c(cnn3C)c2)cc1F [Compound 10]
1460

Given the entry [2H]C1([2H])c2ncccc2C(=O)N1Cc1c(F)cc(-c2ccc(C)c3nn(C)cc23)cc1C1CC1 [Compound 204] , report its measured EC50.
293
